Recorded values, source patent US20090318349.

Biological target: hGHQ141N, P01241
Sequence (P01241 27-217 Q167N): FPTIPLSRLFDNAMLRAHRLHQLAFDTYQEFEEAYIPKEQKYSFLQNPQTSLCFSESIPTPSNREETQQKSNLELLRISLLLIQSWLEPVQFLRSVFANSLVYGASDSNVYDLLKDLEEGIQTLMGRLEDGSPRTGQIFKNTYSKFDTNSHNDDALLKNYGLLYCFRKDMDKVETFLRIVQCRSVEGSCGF
quantity-measured: Activity towards hGHQ141N (RFU/sec/µg)
# value in RFU/sec/µg; strip the unit string

Please fill in: Activity towards hGHQ141N (RFU/sec/µg) reported for AlaPro-mTGase from S. ladakanum (protein) APDSDERVTPPAEPLDRMPDPYRPSYGRAETIVNNYIRKWQQVYSHRDGRKQQMTEEQREWLSYGCVGVTWVNSGQYPTNRLAFAFFDEDKYKNELKNGRPRSGETRAEFEGRVAKDSFDEAKGFQRARDVASVMNKALENAHDEGAYLDNLKKELANGNDALRNEDARSPFYSALRNTPSFKDRNGGNHDPSKMKAVIYSKHFWSGQDRSGSSDKRKYGDPEAFRPDRGTGLVDMSRDRNIPRSPTSPGESFVNFDYGWFGAQTEADADKTVWTHGNHYHAPNGSLGAMHVYESKFRNWSDGYSDFDRGAYVVTFVPKSWNTAPDKVKQGWP = 1.02
